System tested: Peroxisome proliferator-activated receptor gamma (Homo sapiens, UniProt P37231)
Sequence (P37231 whole entry): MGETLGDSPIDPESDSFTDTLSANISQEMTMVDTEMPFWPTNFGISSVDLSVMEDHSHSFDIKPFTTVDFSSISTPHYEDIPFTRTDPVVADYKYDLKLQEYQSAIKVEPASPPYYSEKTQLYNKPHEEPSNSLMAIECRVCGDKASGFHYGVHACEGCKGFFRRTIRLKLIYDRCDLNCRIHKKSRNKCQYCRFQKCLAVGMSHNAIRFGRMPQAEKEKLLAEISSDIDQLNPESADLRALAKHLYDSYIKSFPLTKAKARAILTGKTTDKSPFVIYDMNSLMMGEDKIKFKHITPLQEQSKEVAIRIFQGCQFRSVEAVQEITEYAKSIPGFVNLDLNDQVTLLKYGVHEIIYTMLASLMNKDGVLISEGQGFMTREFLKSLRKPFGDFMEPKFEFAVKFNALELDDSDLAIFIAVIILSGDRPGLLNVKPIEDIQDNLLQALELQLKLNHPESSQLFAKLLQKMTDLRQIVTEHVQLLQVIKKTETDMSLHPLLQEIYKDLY
Readout kind: pEC50
Lab note: report pEC50 as minus log10 of the concentration in molar units, number only.

Q: Please report the recorded pEC50 for CC1(CC/C=N/Nc2ncc(Cl)cc2C(F)(F)F)CCc2cc(OCc3ccc(F)cc3)ccc2O1 (stereo unspecified) .
Ans: 5.26
